Origin of the recorded values: paper PMC7617670

System Name: T1, PabB, synthase subunit of aminodeoxychorismate synthase (ADCS) from Escherichia coli, wild type (Escherichia coli, UniProt P05041 1-453)
T1 construct: PabB, synthase subunit of ADCS, E. coli; the gene was cloned into pET28a; Form used for SEC, ITC and kinetics; TEV cleavage is told only of the proteins used for crystallization; also called wt PabB; ADCS synthase subunit; source: E. coli BL21-Gold (DE3), purified (Ni-IMAC, preparative gel filtration)
T1 sequence: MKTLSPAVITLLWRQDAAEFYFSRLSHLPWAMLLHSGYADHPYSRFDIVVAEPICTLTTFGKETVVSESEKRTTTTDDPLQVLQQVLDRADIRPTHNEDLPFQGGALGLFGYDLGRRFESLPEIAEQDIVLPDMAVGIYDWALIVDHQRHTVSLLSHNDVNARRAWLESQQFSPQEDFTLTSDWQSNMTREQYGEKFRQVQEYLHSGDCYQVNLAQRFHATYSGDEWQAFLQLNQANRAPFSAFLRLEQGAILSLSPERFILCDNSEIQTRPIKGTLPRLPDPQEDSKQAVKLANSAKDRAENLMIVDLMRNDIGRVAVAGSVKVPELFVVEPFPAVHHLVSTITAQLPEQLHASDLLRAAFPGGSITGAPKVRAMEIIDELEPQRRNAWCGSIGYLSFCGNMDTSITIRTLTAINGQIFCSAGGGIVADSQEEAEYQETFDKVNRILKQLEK
Experiment Description: ITC; 250 μM PabB titrated into 25 μM PabA in the cell; 25 °C; 50 mM Tris/HCl pH 7.5, 50 mM KCl, 5 mM MgCl2; without Cho and Gln; one set of sites
Test Parameters: both partners purified
Quantity Measured: Kd (nM)
Numeric answer only, unit nM assumed.

For record PabA variant aR30E (enzyme, Escherichia coli, PabA, glutaminase subunit of ADCS, E. coli; construct as m1 with one exchange; Made by QuikChange mutagenesis from the construct of m1; source: E. coli BL21-Gold (DE3), purified (Ni-IMAC, preparative gel filtration)) MILLIDNYDSFTWNLYQYFCELGADVLVKENDALTLADIDALKPQKIVISPGPCTPDEAGISLDVIRHYAGRLPILGVCLGHQAMAQAFGGKVVRAAKVMHGKTSPITHNGEGVFRGLANPLTVTRYHSLVVEPDSLPACFDVTAWSETREIMGIRHRQWDLEGVQFHPESILSEQGHQLLANFLHR the listed Kd is 380

For record PabA variant aP53A (enzyme, Escherichia coli, PabA, glutaminase subunit of ADCS, E. coli; construct as m1 with one exchange; Made by QuikChange mutagenesis from the construct of m1; source: E. coli BL21-Gold (DE3), purified (Ni-IMAC, preparative gel filtration)) MILLIDNYDSFTWNLYQYFCELGADVLVKRNDALTLADIDALKPQKIVISPGACTPDEAGISLDVIRHYAGRLPILGVCLGHQAMAQAFGGKVVRAAKVMHGKTSPITHNGEGVFRGLANPLTVTRYHSLVVEPDSLPACFDVTAWSETREIMGIRHRQWDLEGVQFHPESILSEQGHQLLANFLHR the listed Kd is 180

For record PabA variant aC54G (enzyme, Escherichia coli, PabA, glutaminase subunit of ADCS, E. coli; construct as m1 with one exchange; Made by QuikChange mutagenesis from the construct of m1; source: E. coli BL21-Gold (DE3), purified (Ni-IMAC, preparative gel filtration)) MILLIDNYDSFTWNLYQYFCELGADVLVKRNDALTLADIDALKPQKIVISPGPGTPDEAGISLDVIRHYAGRLPILGVCLGHQAMAQAFGGKVVRAAKVMHGKTSPITHNGEGVFRGLANPLTVTRYHSLVVEPDSLPACFDVTAWSETREIMGIRHRQWDLEGVQFHPESILSEQGHQLLANFLHR the listed Kd is 60
